# System: kochia (Kochia scoparia)
# Protocol text: Test A postemergence application, visual injury rating
# Format: in vivo
# Condition notes: 500 g ai/ha, approx. 10 d, 0 = no effect, 100 = complete control
Metric: Kochia plant response rating (0 to 100 scale)
Answers are plain numbers.

Molecule | Test result
Cc1ccc(C2Cn3c(C)nnc3C2C(=O)Nc2cccc(F)c2C)cc1C (stereo not drawn) | 30

I have 5 molecules here; please give me Kochia plant response rating (0 to 100 scale) for each one.
1. CCc1ccc(C2Cn3c(C)nnc3C2C(=O)Nc2cccc(F)c2C)cc1 (stereo not drawn)
2. O=C(Nc1ccccc1F)C1C2=NCCCN2CC1c1cccc(C(F)(F)F)c1 (stereo not drawn)
3. O=C(Nc1cccc(F)c1F)C1c2nnc(C(F)(F)F)n2CC1c1ccc(C(F)(F)F)cc1 (stereo not drawn)
4. CCc1nnc2n1CC(c1ccc(C(F)(F)F)cc1)C2C(=O)Nc1cccc(F)c1F (stereo not drawn)
5. O=C(Nc1ccccc1F)C1C2=NCC(=O)N2CC1c1cccc(C(F)(F)F)c1 (stereo not drawn)

A)
1. 0
2. 0
3. 0
4. 40
5. 0

I have 3 molecules here; please give me Kochia plant response rating (0 to 100 scale) for each one.
1. CCc1ccc(C2Cn3cnnc3C2C(=O)Nc2cccc(F)c2C)cc1 (stereo not drawn)
2. Cc1nnc2n1CC(c1ccc(Cl)cc1)C2C(=O)Nc1cccc(F)c1F (stereo not drawn)
3. CSc1ccccc1NC(=O)C1c2nncn2CC1c1ccc(C)c(C)c1 (stereo not drawn)

A)
50
30
20
